Each recorded value in this set is attributed to patent US20230381281A1.

# Study Target: human GCG receptor (Homo sapiens, UniProt P47871)
# Construct: expressed in transfected cells; host or cells: Chinese hamster ovary (CHO)
# Sequence (P47871 26-477): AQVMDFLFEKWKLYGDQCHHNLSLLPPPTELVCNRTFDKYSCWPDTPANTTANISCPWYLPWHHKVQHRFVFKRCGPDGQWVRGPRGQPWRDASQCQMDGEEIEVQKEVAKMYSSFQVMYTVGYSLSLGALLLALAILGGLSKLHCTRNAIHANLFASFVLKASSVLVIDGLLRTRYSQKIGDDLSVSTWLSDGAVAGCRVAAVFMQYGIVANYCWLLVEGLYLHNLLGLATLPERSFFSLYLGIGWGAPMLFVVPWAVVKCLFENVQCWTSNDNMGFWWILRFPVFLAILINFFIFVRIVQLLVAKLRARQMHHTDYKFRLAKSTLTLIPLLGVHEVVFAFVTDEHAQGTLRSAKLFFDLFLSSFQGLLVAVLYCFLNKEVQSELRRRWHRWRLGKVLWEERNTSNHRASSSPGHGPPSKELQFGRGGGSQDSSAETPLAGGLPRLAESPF
# Assay Comment: In vitro cAMP activity in human GCG receptor-expressing CHO cells (LANCE cAMP kit)
# Format: cell-based
# Experimental Setup: long-acting conjugates; relative titer from cAMP EC50 compared to human GCG
Bridge positions count the residues as written; N and C are the ends. Square brackets hold non-standard residues; d marks the D form. Ends that are not written are not given here. Aib = CC(C)(N)C(=O)O
I'd appreciate it if you marked entries Met when In vitro activity compared to native peptide (%) vs Glucagon is lower than 2% and Not met when it is not.

* 96 (Y[Aib]QGTFTSDYSKYLDEKRAKEFVQWLLDHCPSSGQPPPS; bridge 16-20) [compound 96] | Not met
* 43 (Y[Aib]QGTFTSDYSKYLDEKRAKEFVQWLLDHHCSSGQPPPS; bridge 16-20) [compound 43] | Not met
* 21 (Y[Aib]QGTFTSDYSKYLDECRAKEFVQWLLDHHPSSGQPPPS; bridge 16-20) [compound 21] | Met
* 77 (Y[Aib]QGTFTSDYSKYLDEKAAKDFVQWLLDHHPSSGQPPPSC; bridge 16-20) [compound 77] | Met
* 42 (Y[Aib]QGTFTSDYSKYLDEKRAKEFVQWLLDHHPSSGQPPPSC; bridge 16-20) [compound 42] | Not met
* 50 (H[Aib]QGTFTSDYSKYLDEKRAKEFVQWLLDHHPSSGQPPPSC; bridge 16-20) [compound 50] | Not met
* 22 (Y[Aib]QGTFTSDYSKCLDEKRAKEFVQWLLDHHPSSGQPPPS; bridge 16-20) [compound 22] | Met
